Taken from PubChem BioAssay (NCI).

tested on: SW-620 colon; assay: NCI-60 one-dose screen, 48 h; conditions: 10 µM
The panel holds about 83,000 compounds, 20% with a hit somewhere; the sample as a whole holds those more often. Calls of active or inactive are those of the source. How the source made its calls: active means growth percent below 10; inactive means the rest.
Your response should consist of one outcome taken from active, inactive

COc1ccc(OC)c(/C=N/NC(=O)c2ccc3nc(-c4ccc(Cl)cc4)[nH]c3c2)c1 : inactive
CCNCCCn1c2c(c3cc(OC)c(OC)cc3c1=O)C(=O)c1cc3c(nc1-2)OCO3 : inactive
CN1CCO/C1=C(/NC(=O)c1ccc(Cl)cc1)[P+](c1ccccc1)(c1ccccc1)c1ccccc1 : inactive
CC1=C2C(=C[C@@](C)(CO)[C@@H]2O)/C(=N\N)[C@](C)(O)C12CC2 : active
COc1cnc2c(c1)C(=O)c1c-2n(CCCNCCO)c(=O)c2cc(OC)c(OC)cc12 : inactive
COc1cc(-c2nc3cc(Cl)c(Cl)cc3[nH]2)ccc1OCc1nnc(-c2ccc(Br)cc2)o1 : inactive
O=c1[nH]n(C(=S)N/N=C/c2ccc(F)cc2)c(=O)c2ccccc12 : inactive
Cc1cc(C(F)(F)F)ccc1C(=O)Nc1sc2c(c1C#N)CCC(=O)C2 : active
O=C(CS(=O)(=O)c1oc(-c2ccc(Cl)cc2)nc1S(=O)(=O)c1ccc(Cl)cc1)N1CCOCC1 : active
COC1CC(Cn2cc(COc3ccc4ccc(=O)oc4c3)nn2)C(OCc2ccccc2)C(OCc2ccccc2)C1OCc1ccccc1 (centres undefined) : inactive

Returns: the outcome recorded for CN1CCN(c2ccc(Nc3nc(NCCCNC(=O)C4CCCCC4)c4sccc4n3)cc2)CC1 in this assay.
inactive

* * *

system: HOP-62 NSCLC; assay: NCI-60 one-dose screen, 48 h (100 = growth as untreated, 0 = no growth, -100 = all killed); details: 10 µM
This is part of a sample that, as a whole, favours compounds with a hit. Of some 83,000 tested, about 20% had one in any assay.
For each record, check the reported growth: if it is below 70% write 1.0, else write 0.0.

O=C(CS(=O)(=O)c1oc(-c2ccc(Cl)cc2)nc1S(=O)(=O)c1ccc(Cl)cc1)N1CCOCC1 : 0.0
COc1ccc(N(C)c2cc(C#N)nc3ccccc23)cc1N : 1.0
Cc1ccc(C(C)C)cc1NC(=O)c1ccccc1N(C)C : 0.0
COc1ccc2cc([C@H](C)C(=O)NCc3ccccc3)ccc2c1 : 1.0

Say whether its growth is strictly beneath 70%. Entry: CS(=O)(=O)Nc1ccc(-c2ccc3c(c2)ncn3-c2ccc(NC(=O)Nc3ccc(Br)cc3)cc2)cc1
1.0

// query: NC1=NC(c2ccccc2Cl)N=C(Nc2nn[nH]n2)N1 (stereo not given)
0.0

Follow-up entry: C=CCn1c(SCC(=O)Nc2ccc(C(=O)/C=C/c3ccccc3)cc2)nnc1-c1c[nH]c2ccccc12
0.0

Now the molecule COc1ccc(/C=C/C(=O)c2ccc(S(=O)(=O)NCCNc3nc(Nc4ccc(F)cc4)nc(N(C)C)n3)cc2)cc1
1.0

Subsequent entry: Cc1ccc(-c2cc(-c3cc4ccccc4nc3Cl)[nH]c(=O)n2)cc1
1.0

Ok, now CN1CCN(c2ccc(C(=O)/C=C/c3cc(Br)ccc3F)cc2)CC1
0.0

Then this molecule: Cc1cc(=O)oc2cc(OCCCCOc3ccc(/C=C/C(=O)Nc4ccc(F)c(Cl)c4)cc3)ccc12
0.0

How about O=C1Nc2cc(Cl)ccc2/C1=C/c1cccc(OCc2ccccc2)c1 ?
1.0

How about CCNCCCn1c2c(c3cc(OC)c(OC)cc3c1=O)C(=O)c1cc3c(nc1-2)OCO3 ?
1.0

Also, Clc1ccc2c(N/N=C/c3c[nH]c4ccc(Br)cc34)ccnc2c1 please.
1.0

Entry to check: O=C1Nc2ccc(Cl)cc2/C1=C/c1cccc(OCc2ccccn2)c1
1.0
